# SUBJECT_OF_TEST: Substance-P receptor (Homo sapiens, UniProt P25103)
# Sequence (P25103 whole entry): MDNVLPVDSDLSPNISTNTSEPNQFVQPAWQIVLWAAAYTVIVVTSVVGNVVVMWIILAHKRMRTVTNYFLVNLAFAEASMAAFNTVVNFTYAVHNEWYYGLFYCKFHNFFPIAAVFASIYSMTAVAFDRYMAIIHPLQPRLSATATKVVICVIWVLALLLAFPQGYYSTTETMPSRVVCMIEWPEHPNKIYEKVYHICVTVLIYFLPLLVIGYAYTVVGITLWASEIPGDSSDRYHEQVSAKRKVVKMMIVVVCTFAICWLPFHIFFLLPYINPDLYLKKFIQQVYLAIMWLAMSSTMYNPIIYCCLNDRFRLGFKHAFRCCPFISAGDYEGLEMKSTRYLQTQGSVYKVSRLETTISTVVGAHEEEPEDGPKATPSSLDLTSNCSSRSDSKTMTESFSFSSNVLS
# METHOD_DESCRIPTION: Binding affinity for human NK1 receptor expressed in CHO cells
I'd appreciate it if you could supply IC50 values for the items below.
Record the value in nM, omitting the unit from your answer.

Query: Name the recorded IC50 for FC(F)(F)c1cc(COC[C@]2(c3ccccc3)CCCN2)cc(C(F)(F)F)c1 .
Reply: 20

Query: Can you handle FC(F)(F)c1cc(COC[C@]2(c3ccccc3)CCCCN2)cc(C(F)(F)F)c1 next?
Reply: 1
